Origin of measurements: patent EP3811940B1

target: human topo IIα (Homo sapiens, UniProt P11388); construct: purchased Inspiralis (Norwich, UK); test: HTS relaxation assay of human topo IIα; type: biochemical; details: screening at 7.8, 31.5, 125 and 500 µM
Sequence (P11388 whole entry): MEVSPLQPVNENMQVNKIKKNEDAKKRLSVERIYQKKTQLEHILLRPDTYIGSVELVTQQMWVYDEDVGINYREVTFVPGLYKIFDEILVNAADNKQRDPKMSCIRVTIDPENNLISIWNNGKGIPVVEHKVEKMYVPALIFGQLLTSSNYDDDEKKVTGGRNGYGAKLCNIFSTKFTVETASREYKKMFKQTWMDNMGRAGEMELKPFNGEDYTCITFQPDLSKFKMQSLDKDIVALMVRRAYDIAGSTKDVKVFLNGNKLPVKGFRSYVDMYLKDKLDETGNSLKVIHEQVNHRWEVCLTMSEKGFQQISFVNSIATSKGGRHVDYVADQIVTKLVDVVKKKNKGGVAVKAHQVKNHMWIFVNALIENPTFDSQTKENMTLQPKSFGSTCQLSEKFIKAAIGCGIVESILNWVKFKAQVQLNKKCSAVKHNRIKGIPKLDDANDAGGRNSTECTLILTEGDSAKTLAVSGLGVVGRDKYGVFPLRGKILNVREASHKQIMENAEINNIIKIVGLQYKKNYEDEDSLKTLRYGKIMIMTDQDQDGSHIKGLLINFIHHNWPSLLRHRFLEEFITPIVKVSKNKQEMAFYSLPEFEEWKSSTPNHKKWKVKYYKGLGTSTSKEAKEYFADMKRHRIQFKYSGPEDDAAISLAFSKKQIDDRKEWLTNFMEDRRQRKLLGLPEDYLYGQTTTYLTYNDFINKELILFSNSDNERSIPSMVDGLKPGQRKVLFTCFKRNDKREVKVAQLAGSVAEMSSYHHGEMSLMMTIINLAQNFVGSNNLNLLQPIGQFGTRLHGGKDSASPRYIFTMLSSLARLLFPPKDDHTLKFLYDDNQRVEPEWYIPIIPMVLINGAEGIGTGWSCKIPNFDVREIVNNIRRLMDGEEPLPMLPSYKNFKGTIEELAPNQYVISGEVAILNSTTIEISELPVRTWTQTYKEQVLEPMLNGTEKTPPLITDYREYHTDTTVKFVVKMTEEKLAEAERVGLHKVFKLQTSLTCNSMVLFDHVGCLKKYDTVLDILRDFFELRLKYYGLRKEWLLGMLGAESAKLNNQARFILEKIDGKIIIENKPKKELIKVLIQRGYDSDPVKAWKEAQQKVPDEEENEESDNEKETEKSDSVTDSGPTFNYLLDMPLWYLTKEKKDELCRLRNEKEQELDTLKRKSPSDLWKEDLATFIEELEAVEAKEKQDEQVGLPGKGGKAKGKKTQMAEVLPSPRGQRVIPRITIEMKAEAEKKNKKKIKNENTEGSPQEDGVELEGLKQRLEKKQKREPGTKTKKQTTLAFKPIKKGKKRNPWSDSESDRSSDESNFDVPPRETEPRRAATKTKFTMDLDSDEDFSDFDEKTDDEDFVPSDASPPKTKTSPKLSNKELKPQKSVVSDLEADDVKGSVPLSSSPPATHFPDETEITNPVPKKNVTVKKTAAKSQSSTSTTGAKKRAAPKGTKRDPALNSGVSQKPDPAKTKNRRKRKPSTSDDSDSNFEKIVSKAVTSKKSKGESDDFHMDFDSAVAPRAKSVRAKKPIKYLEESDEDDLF
value kind: IC50 (µM)

Take a look at these entries with their results.
[
  {
    "smiles": "CC(=O)Nc1ccc(Nc2nc(-c3sc(NC(C)=O)nc3C)cs2)cc1",
    "target or system": "human topo IIα (Homo sapiens, UniProt P11388)",
    "IC50 (µM)": 60
  },
  {
    "smiles": "CC(=O)Nc1nc(C)c(-c2csc(Nc3cccc(O)c3)n2)s1",
    "target or system": "human topo IIα (Homo sapiens, UniProt P11388)",
    "IC50 (µM)": 33.7
  },
  {
    "smiles": "COc1ccc(Nc2nc(-c3sc(NC(C)=O)nc3C)cs2)cc1",
    "target or system": "human topo IIα (Homo sapiens, UniProt P11388)",
    "IC50 (µM)": 22.7
  }
]

P: CC(=O)Nc1nc(C)c(-c2csc(Nc3ccc(C(=O)O)cc3)n2)s1
Q: Cc1nc(N)sc1-c1csc(Nc2ccc(S(N)(=O)=O)cc2)n1
R: CC(=O)Nc1nc(C)c(-c2csc(Nc3ccc(O)cc3)n2)s1
Enquiry: List these items ordered by IC50, big to small. Reply: labels, ordered per the request.
Return: R, P, Q
